Please go through the items and note down their z-score.
# method-notes: E. coli DRC41 culture turbidity changes, primary screen, E. coli filamentation inducer project, strain DRC41, OD650, 48 h (AID 1152);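 further: E. coli MC1000 strain DRC41 lacking acrAB efflux pump and sulA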
# condition-notes: E. coli DRC41 (acrAB sulA), higher = more signal, called active from +8 up or from −8 down
Please give the numeric answer without any surrounding text.

Query string: Looking for the measured z-score of "O=C(NN=C1C[C@@H](O)[C@@H](O)[C@@H]2[C@@H]3C(=O)N(C[C@@H]4CCCO4)C(=O)[C@@H]3CC[C@@H]12)OCc1ccccc1" , can you help?
Result string: 0.828

Query string: Repeat with "CCN1C(=O)[C@H]2[C@H]3[C@H](O)[C@H](O)CC(=NO[C@@H](C)c4cn([C@H](CO)Cc5ccccc5)nn4)[C@@H]3CC[C@H]2C1=O"
Result string: 0.115

Query string: Repeat with "CCc1cc2c(nc1CC)CCN(CCC(C)=NO[C@@H](C)c1cn([C@H](CO)Cc3ccccc3)nn1)C2"
Result string: 0.0933

Query string: Repeat with "COC(=O)CC=C[C@@H](C)[C@@H](C=NOC[C@H]1O[C@H](c2ccccc2)C=C[C@@H]1Oc1ccc(OC)cc1)NS(=O)(=O)c1ccc(C)cc1"
Result string: -0.272

Query string: Repeat with "CCOC(=O)C1=NO[C@]2(C=C(Br)C3(OCCCO3)[C@H]3O[C@H]32)C1"
Result string: 0.209

Query string: Repeat with "CO[C@@H]1COC(=O)[C@@H](C)COC(=O)[C@@H](C)NC(=O)CC=C[C@@H]1C"
Result string: -0.294

Query string: Repeat with COC(=O)[C@H](C)NC(=O)CCC1CC(OC(=O)NCCc2ccc(F)cc2)CC2(CCCC(COC(=O)NCc3cccc(C(F)(F)F)c3)O2)O1 (some centres not stated)
Result string: 0.419

---

# method-notes: RPMI8226 myeloma cell viability, profiling panel, resazurin fluorescence, basal, 24 h, PK04 Diversity Set (AID 1180);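 further: RPMI8826 multiple myeloma cell line at 5000 cells per well; test concentration not given here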
# condition-notes: higher = more signal
Please go through the items and note down their z-score.
Please give the numeric answer without any surrounding text.

Query string: Looking for the measured z-score of "COc1ccc(O[C@H]2C=C[C@@H](c3ccccc3)O[C@@H]2CON=C(C)CCN2CCc3nc(-c4ccccc4)c(-c4ccccc4)cc3C2)cc1" , can you help?
Result string: 0.382

Query string: Repeat with "COC(=O)[C@H]1[C@@H](O)[C@@]2(O)c3ccccc3O[C@@]2(c2ccccc2)[C@@H]1c1ccccc1"
Result string: -0.857

Query string: Repeat with CCOC(=O)[C@H](CC(C)C)NC(=O)CCC1CC(OC(=O)NCc2ccc3c(c2)OCO3)CC2(CCCC(COC(=O)NCCCN3CCCC3=O)O2)O1 (some centres undefined)
Result string: 1.24

Query string: Repeat with "CCN1C(=O)[C@H]2[C@H]3[C@H](O)[C@H](O)CC(=NO[C@@H](C)c4cn([C@H](CO)Cc5ccccc5)nn4)[C@@H]3CC[C@H]2C1=O"
Result string: -0.504

Query string: Repeat with "CCc1cc2c(nc1CC)CCN(CCC(C)=NO[C@H](C)c1cn([C@H](CO)Cc3ccccc3)nn1)C2"
Result string: -0.162

Query string: Repeat with "CC(C)=CCCC(C)=CCON=C1C[C@@H](O)[C@@H](O)[C@@H]2[C@@H]3C(=O)N(c4cccc(Oc5ccccc5)c4)C(=O)[C@@H]3CC[C@@H]12"
Result string: -0.198

Query string: Repeat with "COC(=O)C=CCCc1coc(C=CCNC(=O)OC)n1"
Result string: -0.102

Query string: Repeat with CCOC(=O)[C@H](Cc1ccccc1)NC(=O)CCC1CC(OC(=O)NCc2ccc3c(c2)OCO3)CC2(CCCC(COC(=O)NCCc3ccccc3OC)O2)O1 (some centres undefined)
Result string: 0.0481

Query string: Repeat with "CC(C)=NO[C@H](C)c1cn([C@H](CO)Cc2ccccc2)nn1"
Result string: 0.672

Query string: Repeat with CC(=O)O[C@H]1C2=CO[C@H](C)[C@H]3[C@H]4C5=C([C@H](O)[C@H]6O[C@H]6C5=O)[C@H](OC4C)[C@@]23C(=O)[C@@H]2O[C@@H]21 (some centres undefined)
Result string: -3.5

Query string: Repeat with COC(=O)[C@H](C)NC(=O)CCC1CC(OC(=O)NCCc2ccc(F)cc2)CC2(CCCC(COC(=O)NCCC(C)C)O2)O1 (some centres undefined)
Result string: 0.967

Query string: Repeat with "CCc1cc2c(nc1CC)CCN(CCC(C)=NOC[C@H]1O[C@H](c3ccccc3)C=C[C@@H]1Oc1ccc(OC)cc1)C2"
Result string: 0.218

Query string: Repeat with "O=C(NN=C1C[C@@H](O)[C@@H](O)[C@@H]2[C@@H]3C(=O)N(C4CCCCC4)C(=O)[C@@H]3CC[C@@H]12)OCc1ccccc1"
Result string: -0.678

Query string: Repeat with "COC(=O)[C@@H]1CC[C@@H](C)[C@H](c2ccc(Br)cc2)N1"
Result string: 0.429

Query string: Repeat with CC(C)C[C@H](NC(=O)CCC1CC(OC(=O)NCc2cccc3ccccc23)CC2(CCCC(COC(=O)NCc3ccccc3)O2)O1)C(=O)NCC(c1ccccc1)c1ccccc1 (some centres undefined)
Result string: 0.731

Query string: Repeat with "CC(C)=CCCC(C)=CCON=C1C[C@@H](O)[C@@H](O)[C@@H]2[C@@H]3C(=O)N(Cc4ccccc4)C(=O)[C@@H]3CC[C@@H]12"
Result string: 0.97

Query string: Repeat with "COC(=O)[C@H]1O[C@@H](c2c(OC)c(OC)c(C)c(OC)c2OC)[C@H](C)[C@@H](O)[C@H]1C"
Result string: -0.456

Query string: Repeat with "CC(=O)Nc1ccc([C@@H]2N[C@H](C(=O)O)CC[C@H]2C)cc1"
Result string: -0.625

Query string: Repeat with "COc1ccc(O[C@H]2C=C[C@@H](c3ccccc3)O[C@@H]2COC(=O)CCC(C)=NO[C@@H]2O[C@H](COC(C)=O)[C@@H](OC(C)=O)[C@H](OC(C)=O)[C@H]2OC(C)=O)cc1"
Result string: 0.111

Query string: Repeat with "CCO[C@H](c1cc(OC)cc([N+](=O)[O-])c1OC)[C@H](C)C=CCC(=O)OC"
Result string: -0.622

Query string: Repeat with "COCOc1ccc(Br)cc1C(=O)[C@@H]1O[C@H]1c1cccc(OC)c1"
Result string: -0.516

Query string: Repeat with "Cc1cc2c(nc1C)CCCN2CC(O)CN1CCCc2nc(C)c(C)cc21"
Result string: 0.399

Query string: Repeat with "COc1ccc(COC(=O)NN=C2C[C@@H](O)[C@@H](O)[C@@H]3[C@@H]4C(=O)N(c5ccc(F)cc5F)C(=O)[C@@H]4CC[C@H]23)cc1"
Result string: 0.643

Query string: Repeat with "C[C@@H](c1ccccc1)N1C(=O)[C@H]2[C@H]3[C@H](O)[C@H](O)CC(=NO[C@@H]4O[C@H](CO)[C@@H](O)[C@H](O)[C@H]4O)[C@@H]3CC[C@H]2C1=O"
Result string: -0.361

Query string: Repeat with CCOC(=O)[C@H](Cc1ccccc1)NC(=O)CCC1CC(OC(=O)NCc2cccc3ccccc23)CC2(CCCC(COC(=O)NCc3ccccc3)O2)O1 (some centres undefined)
Result string: 1.03

Query string: Repeat with "COC(=O)CC=C[C@@H](C)[C@@H](C=NO[C@@H]1O[C@H](COC(C)=O)[C@@H](OC(C)=O)[C@H](OC(C)=O)[C@H]1OC(C)=O)NS(=O)(=O)c1ccc(C)cc1"
Result string: -0.437

Query string: Repeat with "CCOC(=O)NN=C1C[C@@H](O)[C@@H](O)[C@@H]2[C@@H]3C(=O)N(c4cccc(Oc5ccccc5)c4)C(=O)[C@@H]3CC[C@@H]12"
Result string: 0.0541

Query string: Repeat with CCOC(=O)[C@H](CC(C)C)NC(=O)CCC1CC(OC(=O)NCc2ccc3c(c2)OCO3)CC2(CCCC(COC(=O)NCc3cccc(C(F)(F)F)c3)O2)O1 (some centres undefined)
Result string: 0.328

Query string: Repeat with "COC(=O)CC=C[C@@H](C)[C@@H]1C=C[C@H](O)[C@@H](CO)O1"
Result string: -1.28

---

Please go through the items and note down their composite z-score.
# method-notes: small-molecule microarray binders of probe aShh, primary screen, biochemical, biotinylated probe, 635/667 nm fluorescence (AID 1114);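 further: probe is biotin-labelled aShh protein from a stem cell growth factor screen; measures binding of labelled protein to compounds printed on the slide; score merges feature fluorescence at 667 nm with signal-to-noise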
# condition-notes: higher = more signal
Please give the numeric answer without any surrounding text.

Query string: Looking for the measured composite z-score of "CCN1C(=O)[C@H]2[C@H]3[C@H](O)[C@H](O)CC(=NOCC(C)C)[C@@H]3CC[C@H]2C1=O" , can you help?
Result string: -0.0709

Query string: Repeat with "COC(=O)[C@H]1[C@@H](O)[C@@]2(O)c3ccccc3O[C@@]2(c2ccccc2)[C@@H]1c1ccccc1"
Result string: 0.0815

Query string: Repeat with "CO[C@H]1COC(=O)[C@@H]2CCCN2C(=O)CC=C[C@@H](C)[C@H](OC)COC(=O)[C@@H](OCc2ccccc2)C=C[C@@H]1C"
Result string: -0.2

Query string: Repeat with "C=Cc1ccc([C@H]2N[C@H](C(=O)O)CC[C@@H]2C)cc1"
Result string: -0.0553

Query string: Repeat with CCOC(=O)[C@H](CC(C)C)NC(=O)CCC1CC(OC(=O)NCc2cccc3ccccc23)CC2(CCCC(COC(=O)NCCCN3CCCC3=O)O2)O1 (stereo partly drawn)
Result string: -0.206

Query string: Repeat with CCOC(=O)[C@H](CC(C)C)NC(=O)CCC1CC(OC(=O)NCc2cccc3ccccc23)CC2(CCCC(COC(=O)NCCC(C)C)O2)O1 (stereo partly drawn)
Result string: -0.182

Query string: Repeat with "COC(=O)[C@@H]1CC[C@H](C)[C@@H](c2ccc(C)cc2)N1C(=O)c1ccc(C=NO[C@H](C)c2cn([C@H](CO)Cc3ccccc3)nn2)cc1"
Result string: 0.191

Query string: Repeat with COC(=O)[C@H](C)NC(=O)CCC1CC(OC(=O)NCc2ccc3c(c2)OCO3)CC2(CCCC(COC(=O)NCc3cccc(C(F)(F)F)c3)O2)O1 (stereo partly drawn)
Result string: 0.0756

Query string: Repeat with "O=C(C=Cc1ccc2c(c1)OCO2)c1ccc(F)cc1"
Result string: 0.297

Query string: Repeat with CCOC(=O)[C@H](CC(C)C)NC(=O)CCC1CC(OC(=O)NCCc2ccc(F)cc2)CC2(CCCC(COC(=O)NCCc3ccccc3OC)O2)O1 (stereo partly drawn)
Result string: 0.157

Query string: Repeat with "CO[C@@H]1COC(=O)[C@H](CCSC)NC(=O)CC=C[C@@H](C)COC(=O)CCC[C@H]1C"
Result string: -0.214

Query string: Repeat with "C[C@@H](c1ccccc1)N1C(=O)[C@H]2[C@H]3[C@H](O)[C@H](O)CC(=O)[C@H]3CC[C@H]2C1=O"
Result string: -0.206

Query string: Repeat with CCOC(=O)[C@H](CC(C)C)NC(=O)CCC1CC(OC(=O)NCc2cccc3ccccc23)CC2(CCCC(COC(=O)NCCOC)O2)O1 (stereo partly drawn)
Result string: -0.128

Values from PubChem BioAssay
